Quick reference: % of efficacy (protection) of the listed items.
system: Septoria tritici; assay: In vivo preventive test on Septoria tritici (leaf spot on wheat); conditions: 500 ppm; wheat plants sprayed 24 hours before contamination; grading 21 to 28 days after contamination vs control plants
measurementLabel: % of efficacy (protection) (%)

{"compound": "CCn1cc(CNC(=O)C2(C(C)C)CC(c3ccc4ncc(Br)cc4c3)=NO2)c(C)n1 (centres unmarked) [compound 61]", "unitsSymbol": "%", "recordedResult": 80}
{"compound": "C#Cc1cnc2ccc(C3=NOC(OC)(C(=O)NCc4c(C)cnn4CCC)C3)cc2c1 (centres unmarked) [compound 409]", "unitsSymbol": "%", "recordedResult": 100}
{"compound": "C#Cc1cnc2ccc(C3=NOC(C)(C(=O)NC(C)(C)C#CCOC)C3)cc2c1 (centres unmarked) [compound 465]", "unitsSymbol": "%", "recordedResult": 97}
{"compound": "CC(C)NC(=O)C1(C)CC(c2ccc3ncc(C(F)(F)F)cc3c2)=NO1 (racemic) [compound 384]", "unitsSymbol": "%", "recordedResult": 100}
{"compound": "CCn1cc(CNC(=O)C2(F)CC(c3ccc4ncc(Br)cc4c3)=NO2)c(C)n1 (centres unmarked) [compound 279]", "unitsSymbol": "%", "recordedResult": 75}
{"compound": "C#Cc1cnc2ccc(C3=NOC(C)(C(=O)NCC4CCCOC4c4ccccc4)C3)cc2c1 (centres unmarked) [compound 222]", "unitsSymbol": "%", "recordedResult": 71}
{"compound": "C#Cc1cnc2ccc(C3=NOC(OC)(C(=O)NCC(O)CO)C3)cc2c1 (centres unmarked) [compound 473]", "unitsSymbol": "%", "recordedResult": 75}
{"compound": "C=CC1(C(=O)NC(C)C)CC(c2ccc3ncc(I)cc3c2)=NO1 (centres unmarked) [compound 731]", "unitsSymbol": "%", "recordedResult": 100}
